The values you see were collected from PubChem BioAssay (NCI).

Tested on: SN12C renal
TEST_DESCRIPTION: NCI tumour cell line growth inhibition, 48 h
EXPERIMENTAL_READOUT: log10 TGI (log10 of the value in µM)
Quick note: numbers are log10 of TGI, with µM as the unit.

CCN(CC)CCOc1ccc(/C(=C(\C)c2ccc(F)c(OC)c2)c2ccc(Cl)cc2)cc1 ... 0.67

Qu. Can you look up the measured log10 TGI of CN(C)Cc1c[nH]c2c1C(=O)c1c(c(O)c3ccccc3c1O)C2=O for me?
Ans. 1.28

Qu. What value of log10 TGI has been recorded for this entry: Cc1cc(C)cc(C(=N)c2ccccc2Cc2cccc3ccccc23)c1
Ans. 1.54

Qu. Can you look up the measured log10 TGI of CC(C)(C)C(=O)/C=C/c1ccc(Oc2ccccc2)cc1 for me?
Ans. 1.66

Qu. Reported log10 TGI for CCOC(=O)C(N)CSC(=O)NC (centres undefined) : what is it?
Ans. 2.33

Qu. Look up log10 TGI: O=C(O)c1ccccc1-c1ccccc1C(=O)Nc1ccc2c(c1)Cc1cc(F)ccc1-2
Ans. 1.66

* * *

System: TK-10 renal
TEST_DESCRIPTION: NCI tumour cell line growth inhibition, 48 h
Measured TGI values are reported for all entries that follow.

The cases that follow already have their TGI on record.
COn1cc(C=O)c2ccccc21 ... > 93 µM
COc1cc(/C=C2\C(=O)Nc3ccc(F)cc32)cc(OC)c1OC ... > 100 µM

Continue with the compound presented below.
Qu. Reported TGI, compound O=C1C(Cl)C(c2ccccc2)N1n1cnc2ccccc2c1=O (stereo not drawn) : ____
Ans. > 100 µM

* * *

System: OVCAR-8 ovarian
TEST_DESCRIPTION: NCI tumour cell line growth inhibition, 48 h
EXPERIMENTAL_READOUT: TGI

These solved cases illustrate the format of a correct answer.
COC(=O)C12C3C4C5(C(=O)OC)C(C1C35C(=O)N(C(C)C)C(C)C)C42C(=O)N(C(C)C)C(C)C (stereo not given) ... > 50 µM
OCC1OC(n2cnc3c2NC=NC[C@H]3O)C(O)C1O (stereo not given in full) ... > 450 µM
N#CSc1nc[nH]c1C(N)=O ... > 100 µM
COC(=O)[C@@H](NC(=O)[C@@H](OC)[C@@H]1Cc2cc3cc(OC4CC(OC5CC(O)C(O)C(C)O5)C(O)C(C)O4)c(C)c(O)c3c(O)c2C(=O)[C@H]1OC1CC(OC2CC(OC3CC(C)(O)C(O)C(C)O3)C(O)C(C)O2)C(O)C(C)O1)C(C)C (stereo not given in full) ... > 32.5 µM

Now consider a different compound.
Qu. Data request, read-out TGI, for Cc1ccc(C2CC(c3ccco3)=NN2c2ccccc2)o1 (stereo not given)
Ans. > 100 µM

* * *

System: NCI-H522 lung
TEST_DESCRIPTION: NCI tumour cell line growth inhibition, 48 h
Listing: TGI of selected compounds

The examples below pair each entry with its known result.
CC1=C(C(=O)Nc2c(C)cccc2C)C(c2ccccc2Cl)C(C(=O)Nc2c(C)cccc2C)=C(C)N1 ... > 100 µM
Cc1cn(C2CC(ON3C(=O)c4ccccc4C3=O)C(CO)O2)c(=O)[nH]c1=O (stereo not drawn) ... > 10 µM

Qu. Quick one: TGI for O=C(C[n+]1ccccc1)NNC(=O)/C(=C/c1ccc2c(c1)OCO2)NC(=O)c1ccccc1 ?
Ans. > 70.8 µM
